Would you kindly list EC90 for each of these compounds?
Test system: Nonstructural protein 5A (Hepatitis C virus), Q5L478 [Y93H]
Sequence (Q5L478 entry or part of it Y93H): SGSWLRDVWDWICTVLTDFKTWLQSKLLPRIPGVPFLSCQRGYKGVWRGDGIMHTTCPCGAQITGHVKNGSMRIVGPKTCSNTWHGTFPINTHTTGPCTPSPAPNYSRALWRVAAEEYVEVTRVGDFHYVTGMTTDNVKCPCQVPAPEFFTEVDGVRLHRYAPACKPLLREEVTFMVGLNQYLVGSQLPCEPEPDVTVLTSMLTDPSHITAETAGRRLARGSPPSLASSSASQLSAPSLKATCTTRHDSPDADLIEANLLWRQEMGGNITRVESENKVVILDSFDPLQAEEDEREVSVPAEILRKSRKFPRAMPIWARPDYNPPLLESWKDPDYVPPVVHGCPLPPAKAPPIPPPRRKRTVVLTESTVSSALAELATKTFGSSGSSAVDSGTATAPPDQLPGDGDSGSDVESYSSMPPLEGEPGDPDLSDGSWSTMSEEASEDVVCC
Experiment: Inhibition of HCV genotype-1a NS5A Y93H mutant infected in human HuH7 cells by luciferase reporter gene assay
Type: cell-based
Conditions: Hepatitis C virus subtype 1a; Huh-7
One number for each entry, in nM.

Sample records with EC90:
INSERT INTO measurements (compound, measure, uom, recorded_result) VALUES
  ('COCc1ccc(C2Oc3cc(-c4cnc([C@@H]5CCCN5C(=O)[C@@H](NC(=O)OC)C(C)C)[nH]4)cc(F)c3-c3cc4cc(-c5cnc([C@@H]6CCCN6C(=O)[C@@H](NC(=O)OC)C(C)C)[nH]5)ccc4n32)s1 (stereo partly drawn)', 'EC90', 'nM', 0.22),
  ('COC(=O)N[C@H](C(=O)N1CCC[C@H]1c1ncc(-c2cc(F)c3c(c2)OC(c2sccc2C2CC2)n2c-3cc3cc(-c4cnc([C@@H]5CCCN5C(=O)[C@@H](NC(=O)OC)C(C)C)[nH]4)ccc32)[nH]1)C(C)C (stereo partly drawn)', 'EC90', 'nM', 70);

Pending compound:
What value of EC90 has been recorded for this entry: COC(=O)N[C@H](C(=O)N1CCC[C@H]1c1ncc(-c2cc(F)c3c(c2)OC(c2cc(C(C)C)no2)n2c-3cc3cc(-c4cnc([C@@H]5CCCN5C(=O)[C@@H](NC(=O)OC)C(C)C)[nH]4)ccc32)[nH]1)C(C)C (stereo partly drawn)
0.42

###

Test system: Huh-7
Assay: Inhibition of HCV genotype-1a NS5A infected in human HuH7 cells by luciferase reporter gene assay
Assay type: cell-based
Conditions: Hepatitis C virus subtype 1a
For each record, write down the corresponding EC90.

Solved cases below.
INSERT INTO results (compound, measure, recorded_result) VALUES
  ('COC(=O)N[C@H](C(=O)N1CCC[C@H]1c1ncc(-c2cc(F)c3c(c2)OC(c2cc4c(s2)CCCC4)n2c-3cc3cc(-c4cnc([C@@H]5CCCN5C(=O)[C@@H](NC(=O)OC)C(C)C)[nH]4)ccc32)[nH]1)C(C)C (stereo partly drawn)', 'EC90', '5 pM'),
  ('COC(=O)N[C@H](C(=O)N1CCC[C@H]1c1ncc(-c2cc(F)c3c(c2)OC(c2sc(C4CC4)cc2F)n2c-3cc3cc(-c4cnc([C@@H]5CCCN5C(=O)[C@@H](NC(=O)OC)C(C)C)[nH]4)ccc32)[nH]1)C(C)C (stereo partly drawn)', 'EC90', '2 pM');

Attention now shifts to the item below.
What does the data say about its EC90? Entry: COC(=O)N[C@H](C(=O)N1CCC[C@H]1c1ncc(-c2cc(F)c3c(c2)OC(c2cnns2)n2c-3cc3cc(-c4cnc([C@@H]5CCCN5C(=O)[C@@H](NC(=O)OC)C(C)C)[nH]4)ccc32)[nH]1)C(C)C (stereo partly drawn)
3 pM

###

Exercise: for every item that follows, state its recorded bioavailability.
Assay: Oral bioavailability in dog at 5 mg/kg measured after 24 hrs by LC/MS method
Format: ADME, organism-based, Canis lupus familiaris
Conditions: in vivo
One number for each entry, in %.

Some solved entries appear below for comparison.
INSERT INTO results (compound, uom, recorded_result) VALUES
  ('COC(=O)N[C@H](C(=O)N1CCC[C@H]1c1ncc(-c2cc(F)c3c(c2)O[C@@H](c2cnc(C4CC4)s2)n2c-3cc3cc(-c4cnc([C@@H]5CCCN5C(=O)[C@@H](NC(=O)OC)C(C)C)[nH]4)ccc32)[nH]1)C(C)C [RUZASVIR]', '%', 22),
  ('CCCc1ncc(C2Oc3cc(-c4cnc([C@@H]5CCCN5C(=O)[C@@H](NC(=O)OC)C(C)C)[nH]4)cc(F)c3-c3cc4cc(-c5cnc([C@@H]6CCCN6C(=O)[C@@H](NC(=O)OC)C(C)C)[nH]5)ccc4n32)s1 (some centres undefined)', '%', 23),
  ('COC(=O)N[C@H](C(=O)N1CCC[C@H]1c1ncc(-c2cc(F)c3c(c2)OC(c2ccc(C4CC4)s2)n2c-3cc3cc(-c4cnc([C@@H]5CCCN5C(=O)[C@@H](NC(=O)OC)C(C)C)[nH]4)ccc32)[nH]1)C(C)C (some centres undefined)', '%', 11);

Next item in the queue.
Could you share which bioavailability value was measured for CCc1ccc([C@@H]2Oc3cc(-c4cnc([C@@H]5CCCN5C(=O)[C@@H](NC(=O)OC)C(C)C)[nH]4)cc(F)c3-c3cc4cc(-c5cnc([C@@H]6CCCN6C(=O)[C@@H](NC(=O)OC)C(C)C)[nH]5)ccc4n32)s1 ?
21

###

System: Nonstructural protein 5A (Hepatitis C virus), Q5L478 [UNDEFINED MUTATION]
Test: Inhibition of HCV genotype-1a NS5A L31V mutant infected in human HuH7 cells by luciferase reporter gene assay
Assay type: cell-based
Settings: Hepatitis C virus subtype 1a; Huh-7
Please go through the items and note down their log10(EC90).
For clarity, the numbers are log10 values of EC90 expressed in nM.

Answered examples (10):
INSERT INTO results (compound, measure, recorded_result) VALUES
  ('COC(=O)N[C@H](C(=O)N1CCC[C@H]1c1ncc(-c2cc(F)c3c(c2)OC(c2cnc(C4CC4)o2)n2c-3cc3cc(-c4cnc([C@@H]5CCCN5C(=O)[C@@H](NC(=O)OC)C(C)C)[nH]4)ccc32)[nH]1)C(C)C (some centres not stated)', 'log10(EC90)', -0.34),
  ('CCc1ncc(C2Oc3cc(-c4cnc([C@@H]5CCCN5C(=O)[C@@H](NC(=O)OC)C(C)C)[nH]4)cc(F)c3-c3cc4cc(-c5cnc([C@@H]6C[C@H]7C[C@H]7N6C(=O)[C@@H](NC(=O)OC)C(C)C)[nH]5)ccc4n32)s1 (some centres not stated)', 'log10(EC90)', -1.66),
  ('COC(=O)N[C@H](C(=O)N1CCC[C@H]1c1ncc(-c2cc(F)c3c(c2)OC(c2ncc(C4CC4)s2)n2c-3cc3cc(-c4cnc([C@@H]5CCCN5C(=O)[C@@H](NC(=O)OC)C(C)C)[nH]4)ccc32)[nH]1)C(C)C (some centres not stated)', 'log10(EC90)', -1.77),
  ('CCCc1ncc(C2Oc3cc(-c4cnc([C@@H]5CCCN5C(=O)[C@@H](NC(=O)OC)C(C)C)[nH]4)cc(F)c3-c3cc4cc(-c5cnc([C@@H]6C[C@H]7C[C@H]7N6C(=O)[C@@H](NC(=O)OC)C(C)C)[nH]5)ccc4n32)s1 (some centres not stated)', 'log10(EC90)', -1.89),
  ('COC(=O)N[C@H](C(=O)N1CCC[C@H]1c1ncc(-c2cc(F)c3c(c2)OC(c2cc(C)c(C4CC4)s2)n2c-3cc3cc(-c4cnc([C@@H]5CCCN5C(=O)[C@@H](NC(=O)OC)C(C)C)[nH]4)ccc32)[nH]1)C(C)C (some centres not stated)', 'log10(EC90)', -2.05),
  ('COC(=O)N[C@H](C(=O)N1CCC[C@H]1c1ncc(-c2cc(F)c3c(c2)OC(c2cc4c(s2)CCC4)n2c-3cc3cc(-c4cnc([C@@H]5C[C@H]6C[C@H]6N5C(=O)[C@@H](NC(=O)OC)C(C)C)[nH]4)ccc32)[nH]1)C(C)C (some centres not stated)', 'log10(EC90)', -1.82),
  ('COC(=O)N[C@H](C(=O)N1CCC[C@H]1c1ncc(-c2ccc3c(c2)cc2n3C(c3cc4ccccc4s3)Oc3cc(-c4cnc([C@@H]5C[C@@H](F)CN5C(=O)[C@@H](NC(=O)OC)C(C)C)[nH]4)ccc3-2)[nH]1)C(C)C (some centres not stated)', 'log10(EC90)', -0.28),
  ('COC(=O)N[C@H](C(=O)N1CCC[C@H]1c1ncc(-c2cc(F)c3c(c2)OC(c2cnc(OC)s2)n2c-3cc3cc(-c4cnc([C@@H]5CCCN5C(=O)[C@@H](NC(=O)OC)C(C)C)[nH]4)ccc32)[nH]1)C(C)C (some centres not stated)', 'log10(EC90)', -1.82),
  ('COC(=O)N[C@H](C(=O)N1CCC[C@H]1c1ncc(-c2cc(F)c3c(c2)OC(c2ccc(C(=O)N(C)C)s2)n2c-3cc3cc(-c4cnc([C@@H]5CCCN5C(=O)[C@@H](NC(=O)OC)C(C)C)[nH]4)ccc32)[nH]1)C(C)C (some centres not stated)', 'log10(EC90)', -1.46),
  ('COCc1ncc(C2Oc3cc(-c4cnc([C@@H]5CCCN5C(=O)[C@@H](NC(=O)OC)C(C)C)[nH]4)cc(F)c3-c3cc4cc(-c5cnc([C@@H]6CCCN6C(=O)[C@@H](NC(=O)OC)C(C)C)[nH]5)ccc4n32)s1 (some centres not stated)', 'log10(EC90)', -1.77);

Provide log10(EC90) values for the following items, in order.
1. COC(=O)N[C@H](C(=O)N1CCC[C@H]1c1ncc(-c2cc(F)c3c(c2)OC(c2cnc(CC(F)(F)F)s2)n2c-3cc3cc(-c4cnc([C@@H]5CCCN5C(=O)[C@@H](NC(=O)OC)C(C)C)[nH]4)ccc32)[nH]1)C(C)C (some centres not stated)
2. COC(=O)N[C@H](C(=O)N1CCC[C@H]1c1ncc(-c2cc(F)c3c(c2)OC(c2ccc(C#N)s2)n2c-3cc3cc(-c4cnc([C@@H]5CCCN5C(=O)[C@@H](NC(=O)OC)C(C)C)[nH]4)ccc32)[nH]1)C(C)C (some centres not stated)
3. COC(=O)N[C@H](C(=O)N1CCC[C@H]1c1ncc(-c2cc(F)c3c(c2)OC(c2ccsc2)n2c-3cc3cc(-c4cnc([C@@H]5CCCN5C(=O)[C@@H](NC(=O)OC)C(C)C)[nH]4)ccc32)[nH]1)C(C)C (some centres not stated)
4. COC(=O)N[C@H](C(=O)N1CCC[C@H]1c1ncc(-c2cc(F)c3c(c2)OC(c2cc4c(s2)CCCC4)n2c-3cc3cc(-c4cnc([C@@H]5CCCN5C(=O)[C@@H](NC(=O)OC)C(C)C)[nH]4)ccc32)[nH]1)C(C)C (some centres not stated)
5. COC(=O)N[C@H](C(=O)N1CCC[C@H]1c1ncc(-c2cc(F)c3c(c2)OC(c2ccc(CC(F)(F)F)s2)n2c-3cc3cc(-c4cnc([C@@H]5CCCN5C(=O)[C@@H](NC(=O)OC)C(C)C)[nH]4)ccc32)[nH]1)C(C)C (some centres not stated)

1. -1.30
2. -1.06
3. -0.89
4. -1.57
5. -1.66

Below is a list of compounds. For each, state its recorded log10(EC90).
1. COC(=O)N[C@H](C(=O)N1CCC[C@H]1c1ncc(-c2cc(F)c3c(c2)OC(c2cnc(C4(C)CC4)s2)n2c-3cc3cc(-c4cnc([C@@H]5C[C@H]6C[C@H]6N5C(=O)[C@@H](NC(=O)OC)C(C)C)[nH]4)ccc32)[nH]1)C(C)C (some centres not stated)
2. CCc1ncc(C2Oc3cc(-c4cnc([C@@H]5CCCN5C(=O)[C@@H](NC(=O)OC)C(C)C)[nH]4)cc(F)c3-c3cc4cc(-c5cnc([C@@H]6CCCN6C(=O)[C@@H](NC(=O)OC)C(C)C)[nH]5)ccc4n32)s1 (some centres not stated)

1: -2.15; 2: -1.32
